Recorded values, source patent US9073941B2.

Target: lipoamide dehydrogenase (Lpd) (Mycobacterium tuberculosis (strain ATCC 25618 / H37Rv), UniProt P9WHH9)
Test: Lipoamide Dehydrogenase (Lpd) Inhibition Assay
Type: biochemical
RECORDED ENDPOINT: pIC50
pIC50 is a log-scale quantity: -log10 of the concentration expressed in molar.

>>> quantitative_readout("CCn1nc(-c2ccccc2)nc2c(=O)n(C)c(=O)nc1-2")
6.64

Given item `Cc1ccc(NC(=O)C2CCN(S(=O)(=O)c3cn(C(C)C)cn3)CC2)cc1F` , the value recorded as its pIC50 is 5.55

Memo: `Cc1cccc(CNC(=O)C2CCN(S(=O)(=O)c3cn(C(C)C)cn3)CC2)c1` , reported pIC50: 5.38

Entry under test: `CC(C)n1cnc(S(=O)(=O)N2CCC(C(=O)NCc3cccs3)CC2)c1` . Its pIC50 was 5.47

So for `COc1cc(Cl)c(NC(=O)C2CCN(S(=O)(=O)c3cn(C(C)C)cn3)CC2)c(OC)c1` , the logged pIC50 turned out to be 5.54

Looking up `CC(C)c1ccc(NC(=O)C2CCN(S(=O)(=O)c3cn(C(C)C)cn3)CC2)cc1` , I found its pIC50 recorded as 5.54

====

Target: Mtb PDH (Lpd+DlaT+AceE) (Mycobacterium tuberculosis (strain ATCC 25618 / H37Rv), UniProt P9WHH9)
Test: PDH Inhibition Activity
Type: biochemical
Details: concentration required for 50% inhibition of PDH activity; fluorescence ex 360 nm / em 460 nm; read-out: PDH IC50
Strictly below 2000 nM in IC50: Yes. Otherwise: No.

Completed entries (count: 2):
>>> group_label("CCCCn1c(NS(=O)(=O)c2ccc(C)cc2)c(C#N)c2nc3ccccc3nc21")
"No"
>>> group_label("Cn1c(N)c(C(=O)NCc2ccccc2)c2nc3ccccc3nc21")
"No"

Task item: Strictly below 2000 nM: is that where IC50 of `CCn1nc(-c2ccccc2C)nc2c(=O)n(C)c(=O)nc1-2` sits?
Reply: Yes

Task item: A record lists `CCCCn1c(NC(=O)c2ccc(Br)o2)c(C#N)c2nc3ccccc3nc21` . Is its IC50 below 2000 nM?
Reply: Yes

Task item: Could you please tell me whether IC50 recorded for `Nc1c(Br)cc(Br)c2nsnc12` is less than 2000 nM?
Reply: Yes

Task item: # check: IC50 < 2000 nM for `COc1ccc(-c2nc3c(=O)n(C)c(=O)nc-3n(C)n2)cc1`
Reply: Yes

Task item: Is IC50 of `Nc1ccc2c(c1)C(=O)C(=O)c1ccccc1-2` strictly below 2000 nM?
Reply: Yes

Task item: Is IC50 strictly under 2000 nM for the entry `c1ccc2c(c1)ccn1c3ccccc3cc21` ?
Reply: Yes

Task item: Lab log: compare recorded IC50 with 2000 nM; is it strictly lower for `Cn1nc(-c2ccc(C(F)(F)F)cc2)nc2c(=O)n(C)c(=O)nc1-2` ?
Reply: Yes

Task item: Decide: IC50 of `C=CCOCc1ccccc1` strictly below 2000 nM?
Reply: Yes

Task item: Criterion: IC50 strictly below 2000 nM. Is it met by `Cc1ccc(CNC(=O)C2CCN(S(=O)(=O)c3cn(C(C)C)cn3)CC2)cc1` ?
Reply: No

Task item: For `Nc1c(O)ccc2nsnc12` , is the recorded IC50 below the cut-off of 2000 nM?
Reply: No

====

Target: Mtb PDH (Lpd+DlaT+AceE) (Mycobacterium tuberculosis (strain ATCC 25618 / H37Rv), UniProt P9WHH9)
Assay: PDH Inhibition Activity
Assay type: biochemical
Conditions: concentration required for 50% inhibition of PDH activity; fluorescence ex 360 nm / em 460 nm; read-out: PDH IC50
As shown below, each of these compounds has a reported pIC50 value.
In plain terms, pIC50 is the concentration in mol/L turned into minus its base-10 logarithm.

>>> quantitative_readout("CCOc1ccccc1/C=C1\\Cc2ccccc2C1=O [Compound 102]")
5.95

Query compound follows.
// recorded pIC50 for COc1ccc(-c2nc3c(=O)n(C)c(=O)nc-3n(C)n2)cc1OC [Compound 606] : 5.84

====

Target: lipoamide dehydrogenase (Lpd) (Mycobacterium tuberculosis (strain ATCC 25618 / H37Rv), UniProt P9WHH9)
Test: Lipoamide Dehydrogenase (Lpd) Inhibition Assay
Type: biochemical
Measured pIC50 of individual entries
Note on pIC50: it is the negative log10 of concentration, concentration in mol/L.

Consider the following illustrative entries.
>>> quantitative_readout("COc1cc(OC)c(NC(=O)C2CCN(S(=O)(=O)c3cn(C(C)C)cn3)CC2)cc1Cl [Compound 546]")
5.55
>>> quantitative_readout("CC(C)n1cnc(S(=O)(=O)N2CCC(C(=O)Nc3ccc4c(c3)OCO4)CC2)c1 [Compound 530]")
5.68
>>> quantitative_readout("CCOc1ccc(NC(=O)C2CCN(S(=O)(=O)c3cn(C(C)C)cn3)CC2)cc1 [Compound 520]")
5.66
>>> quantitative_readout("CCc1ccc(NC(=O)C2CCN(S(=O)(=O)c3cn(CC)cn3)CC2)cc1 [Compound 539]")
5.37

Attention now shifts to the item below.
Quick note, pIC50 for CC(C)n1cnc(S(=O)(=O)N2CCC(C(=O)NCc3ccccc3)CC2)c1 [Compound 536] landed at 5.57

====

Target: lipoamide dehydrogenase (Lpd) (Mycobacterium tuberculosis (strain ATCC 25618 / H37Rv), UniProt P9WHH9)
Experiment: Lipoamide Dehydrogenase (Lpd) Inhibition Assay
Type: biochemical
Settings: concentration required for 50% inhibition of LPD activity; DTNB detection, OD405 nm
RECORDED ENDPOINT: IC50 (nM)
API: value field is a number in nM; no unit string.

Some solved entries appear below for comparison.
>>> quantitative_readout("COc1ccc(CCNC(=O)C2CCN(S(=O)(=O)c3cn(C(C)C)cn3)CC2)cc1OC")
2220
>>> quantitative_readout("O=C1C=C(NCc2ccccc2)c2ccccc2C1=O")
100
>>> quantitative_readout("CCOc1ccc2nc(NC(=O)C3CCN(S(=O)(=O)c4cn(C(C)C)cn4)CC3)sc2c1")
2130

Entry CCN(C(=O)C1CCCO1)c1nc2c(s1)CCc1c-2cnn1C (stereo not shown) , IC50 reported as 3760

Consider `CCc1cccc(NC(=O)C2CCN(S(=O)(=O)c3cn(C(C)C)cn3)CC2)c1` . Its measured IC50 is 2550

// IC50 lookup, molecule = `COc1ccc2nc(NC(=O)C3CCN(S(=O)(=O)c4cn(C(C)C)cn4)CC3)sc2c1` , result: 2280

Reported IC50 for `COc1ccc(NC(=O)C2CCN(S(=O)(=O)c3cn(C(C)C)cn3)CC2)c(OC)c1` was 3400

For `Cc1ccc2cc(CNc3ccc(O)cc3)c(O)nc2c1` the molecule record lists IC50 as 1640

The reported value for CCC(C)n1c(NC(=O)c2ccc(Br)o2)c(C#N)c2nc3ccccc3nc21 (stereo not shown) in terms of IC50 is 1650

Lookup result for `Cc1ccc(CNC(=O)CN(C)S(=O)(=O)c2cc(Br)cnc2N)cc1` ; measured IC50: 3310

====

Listing: IC50 of selected compounds
Molecular target: lipoamide dehydrogenase (Lpd) (Mycobacterium tuberculosis (strain ATCC 25618 / H37Rv), UniProt P9WHH9)
Experiment: Lipoamide Dehydrogenase (Lpd) Inhibition Assay
Type: biochemical
Details: concentration required for 50% inhibition of LPD activity; DTNB detection, OD405 nm
Report the figure in nM without appending any unit label.

>>> quantitative_readout("CCn1cnc(S(=O)(=O)N2CCC(C(=O)NCCc3nc4cc(C)ccc4[nH]3)CC2)c1 [Compound 566]")
3910
>>> quantitative_readout("CC(C)n1cnc(S(=O)(=O)N2CCC(C(=O)NCCCc3ccccc3)CC2)c1 [Compound 547]")
2670

Now for a further compound.
Sample COc1ccc(NC(=O)CN(C)S(=O)(=O)c2cc(Br)cnc2N)cc1OC [Compound 502] ; IC50 observed: 840

====

Target: lipoamide dehydrogenase (Lpd) (Mycobacterium tuberculosis (strain ATCC 25618 / H37Rv), UniProt P9WHH9)
Assay: Lipoamide Dehydrogenase (Lpd) Inhibition Assay
Assay type: biochemical
pIC50: −log10 of the molar value.
# binarize pIC50: threshold 6 inclusive, high side YES, low side NO

See these solved cases before continuing.
>>> group_label("N#Cc1c(NC(=O)c2ccc(Cl)c([N+](=O)[O-])c2)n(Cc2ccccc2)c2nc3ccccc3nc12 [Compound 1010]")
"NO"
>>> group_label("CCOc1ccc(NC(=O)C2CCN(S(=O)(=O)c3cn(CC)cn3)CC2)cc1 [Compound 543]")
"NO"
>>> group_label("Cn1nc(-c2ccc(Cl)c(Cl)c2)nc2c(=O)n(C)c(=O)nc1-2 [Compound 604]")
"YES"

Task item: hey, is pIC50 for this one >= 6? CCn1nc(-c2cccnc2)nc2c(=O)n(C)c(=O)nc1-2 [Compound 608]
Reply: YES

Task item: Could you tell me if the measured pIC50 of CC(C)n1cnc(S(=O)(=O)N2CCC(C(=O)NCc3ccc(F)cc3)CC2)c1 [Compound 557] reaches 6 or more?
Reply: NO

Task item: Has CN(C(=O)c1ccc2c(c1)OCCO2)c1nc2c(s1)CCc1c-2cnn1C [Compound 1106] a recorded pIC50 greater than or equal to 6?
Reply: NO

Task item: Assess whether reported pIC50 for CN(CC(=O)Nc1ccc(F)cc1)S(=O)(=O)c1cc(Br)cnc1N [Compound 504] sits at 6 or higher.
Reply: NO

Task item: Check this compound for pIC50 at or above 6: Cn1nc(-c2ccc(Cl)cc2)nc2c(=O)n(C)c(=O)nc1-2 [Compound 603]
Reply: YES

Task item: // inclusive: pIC50 at least 6? input: Cn1nc(-c2ccc(F)cc2)nc2c(=O)n(C)c(=O)nc1-2 [Compound 616]
Reply: YES
